SUBJECT_OF_TEST: L. major amastigote
ASSAY_SUMMARY: L. major intracellular amastigote luciferase assay in RAW 264.7 macrophages
Assay type: cell-based, Leishmania major
APPLIED_CONDITIONS: intracellular amastigotes in RAW 264.7 macrophages, 96 h
TEST_READOUT: pEC50
Lab note — pEC50 values are minus log10 of concentrations in M.

Task: Identify the reported pEC50 for the following entry. Cc1cc(Nc2ccc3c(Nc4cnccn4)ccnc3c2)sn1 [NEU-2148]
Result: 5.33

Task: Identify the reported pEC50 for the following entry. COc1ccc(Nc2ccnc3cc(-c4cnn(C)c4)ccc23)cc1Cl [NEU-2130]
Result: 4.54

Task: Identify the reported pEC50 for the following entry. c1coc(-c2ccc3c(Nc4cnccn4)ccnc3c2)c1 [NEU-2131]
Result: 4.46

Task: Identify the reported pEC50 for the following entry. Cc1nn(C)c(C)c1Nc1ccc2c(Nc3cnccn3)ccnc2c1 [NEU-2142]
Result: 4.59

Task: Identify the reported pEC50 for the following entry. CN1CCN(S(=O)(=O)c2ccc(-c3ccc4c(Nc5cnc(C#N)cn5)ccnc4c3)cc2)CC1 [NEU-1024]
Result: 4.72

Task: Identify the reported pEC50 for the following entry. Cc1ccc(-c2ccc3c(Nc4cnccn4)ccnc3c2)o1 [NEU-2133]
Result: 4.48

Task: Identify the reported pEC50 for the following entry. c1cnc(Nc2ccnc3cc(Nc4nccnn4)ccc23)cn1 [NEU-2145]
Result: 4.55

Task: Identify the reported pEC50 for the following entry. c1cnc(Nc2ccnc3cc(-c4cn[nH]c4)ccc23)cn1 [NEU-2088]
Result: 5.52

Task: Identify the reported pEC50 for the following entry. Cc1nnc(Nc2ccnc3cc(-c4ccc(S(=O)(=O)N5CCN(C)CC5)cc4)ccc23)nc1C [NEU-1028]
Result: 5.40

Task: Identify the reported pEC50 for the following entry. COc1ccc(Nc2ccnc3cc(-c4ccc(C)o4)ccc23)cc1Cl [NEU-2134]
Result: 4.57

Task: Identify the reported pEC50 for the following entry. Cc1cnc(Nc2ccc3c(Nc4cnccn4)ccnc3c2)s1 [NEU-2149]
Result: 5.28

Task: Identify the reported pEC50 for the following entry. Cc1cc(Nc2ccc3c(Nc4cnccn4)ccnc3c2)on1 [NEU-2150]
Result: 4.51

Task: Identify the reported pEC50 for the following entry. Cc1nnc(Nc2ccc3c(Nc4cnccn4)ccnc3c2)nc1C [NEU-2151]
Result: 4.59

Task: Identify the reported pEC50 for the following entry. COc1ccc(Nc2ccnc3cc(-c4cn[nH]c4)ccc23)cc1Cl [NEU-2087]
Result: 4.54

Task: Identify the reported pEC50 for the following entry. CN1CCN(c2ccc(Nc3ccc4c(Nc5cnccn5)ccnc4c3)cc2)CC1 [NEU-2096]
Result: 5.10

Task: Identify the reported pEC50 for the following entry. Cn1cc(Nc2ccc3c(Nc4cnccn4)ccnc3c2)cn1 [NEU-2143]
Result: 4.55

Task: Identify the reported pEC50 for the following entry. Cn1cc(-c2ccc3c(Nc4cnccn4)ccnc3c2)cn1 [NEU-2129]
Result: 4.48

Task: Identify the reported pEC50 for the following entry. CN1CCN(S(=O)(=O)c2ccc(-c3ccc4c(Nc5ccc6[nH]nnc6c5)ccnc4c3)cc2)CC1 [NEU-1018]
Result: 4.77

Task: Identify the reported pEC50 for the following entry. CN1CCN(c2ncc(-c3ccc4c(Nc5ccc6[nH]nnc6c5)ccnc4c3)cn2)CC1 [NEU-1957]
Result: 4.68

Attribution: paper PMC6283615
